These entries and their values trace back to patent US20240270733A1.

Assay: physchem
Details: pH 1.2, simulated gastric fluid, thermodynamic from solid
Structures can show the parent of a compound that is named as a salt.
Measure name: solubility thermodynamic

C=CC(=O)Nc1cc(Nc2nccc(-n3cc(CN(C)C)c(-c4ccccc4)n3)n2)c(OC)cc1N1CCOCC1 [Form A, lazertinib mesylate] has a reported solubility thermodynamic of > 60 mg/mL

* * *

Assay: physchem
Conditions: pH 1.2, simulated gastric fluid, thermodynamic from solid, Instantaneous Solubility
Where a name gives a salt, the structure may show the parent alone.
Measure name: solubility

C=CC(=O)Nc1cc(Nc2nccc(-n3cc(CN(C)C)c(-c4ccccc4)n3)n2)c(OC)cc1N1CCOCC1 [Form A, lazertinib mesylate] has a reported solubility of > 80 mg/mL

* * *

Experiment: physchem
Details: pH 4, aqueous buffer, thermodynamic from solid
Counter-ions that a name gives are not always drawn.
Measure name: solubility at 12 hrs (mg/mL)
# output: bare number, implied unit mg/mL

C=CC(=O)Nc1cc(Nc2nccc(-n3cc(CN(C)C)c(-c4ccccc4)n3)n2)c(OC)cc1N1CCOCC1 [Form A, lazertinib mesylate] has a reported solubility at 12 hrs of 67

* * *

Assay: physchem
Conditions: pH 1.2, simulated gastric fluid, thermodynamic from solid
Structures can show the parent of a compound that is named as a salt.
Measure name: solubility at 4 hrs

C=CC(=O)Nc1cc(Nc2nccc(-n3cc(CN(C)C)c(-c4ccccc4)n3)n2)c(OC)cc1N1CCOCC1 [Form A, lazertinib mesylate] has a reported solubility at 4 hrs of > 60 mg/mL
